These entries and their values trace back to paper PMC8809517.

Biological target: T1, GFP-9S library array, motif 4 ND N98Q;D124G (synthetic construct, N98Q;D124G)
T1 chain: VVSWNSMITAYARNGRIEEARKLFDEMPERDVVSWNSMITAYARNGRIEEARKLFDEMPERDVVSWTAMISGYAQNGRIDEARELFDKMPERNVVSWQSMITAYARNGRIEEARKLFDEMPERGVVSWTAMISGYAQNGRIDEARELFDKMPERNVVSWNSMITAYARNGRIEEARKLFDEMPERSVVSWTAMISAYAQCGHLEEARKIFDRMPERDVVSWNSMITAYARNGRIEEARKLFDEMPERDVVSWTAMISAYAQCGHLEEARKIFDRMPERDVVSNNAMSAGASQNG
Experiment: high-throughput RNA pulldown from lysate on Ni-NTA beads; HRP: 50 mM Tris pH 8, 150 mM NaCl, 1 mM beta-mercaptoethanol, 50 ug/ml BSA, 3 ug/ml yeast RNA, 0.5% heparin; ITC and FP: Tris pH 8, 200 mM KCl, 5% glycerol; MST: 50 mM Tris pH 8, 200 mM NaCl, 1 mM DTT, BSA, heparin, 0.05% Tween 20
Details: tags: N-terminal His-eGFP; label: 5' Cy5
reported metric: pKd
Remember, pKd is on a log scale: it is -log10 of the molar concentration.

The recorded pKd for AUUACACGUGA (ssRNA) [Cy5-rpoA] is 6.81

Now look at this one.
The recorded pKd for AUUAGACGUGA (ssRNA) [Cy5-rpoA-G] is 6.78
